For each record, write down the corresponding IC50.
# Test system: B16
# TEST_NAME: Inhibitory concentration of the compound was determined against melanoma B16 cells
# Assay type: functional, cell-based
# EXPERIMENTAL_CONTEXT: Mus musculus
One number for each entry, in µM.

Please review the following examples before continuing.
CC(C)CN(CC(=O)N(Cc1ccccc1)NC(=O)OCc1ccccc1)/N=C/c1cccc(B(O)O)c1; 20.5
CC(C)CN(NC(=O)OCc1ccccc1)C(=O)CN(Cc1cccnc1)/N=C/c1cccc(B(O)O)c1; 74.9
CC(C)CN(NC(=O)OCc1ccccc1)C(=O)CN(Cc1ccccc1)NC(=O)CBr; 1.4
CC(C)CN(CC(=O)N(CC(C)C)NCC(=O)OCc1ccccc1)NC(=O)CBr; 2.2
CC(C)CN(CC(=O)NN(Cc1ccccc1)c1cnccn1)NC(=O)CBr; 11.4
CC(C)CN(CC(=O)N(Cc1ccccc1)NC(=O)OCc1ccccc1)/N=C/c1ccccc1B(O)O; 33.5
CC(C)CN(CC(=O)N(CC(C)C)NC(=O)OCc1ccccc1)NC(=O)CBr; 1.3
CC(C)CN(NC(=O)CN(Cc1ccccc1)NC(=O)CBr)C(=O)OCc1ccccc1; 0.7

Please look at the following compound next.
I would be grateful if you could share the reported IC50 for CC(C)CN(CC(=O)N(Cc1cccnc1)NC(=O)OCc1ccccc1)/N=C/c1cccc(B(O)O)c1 .
21.1

###

# Tested on: Proteasome
# TEST_NAME: Inhibitory concentration against 20S proteasome chymotrypsin-like activity
# Assay type: subcellular
PARAMETER_MEASURED: IC50

CC(C)CN(NC(=O)CN(Cc1ccccc1)/N=C/c1cccc(B(O)O)c1)c1cnccn1; 500 µM
CC(C)CN(NC(=O)OCc1ccccc1)C(=O)CN(Cc1cccnc1)/N=C/c1cccc(B(O)O)c1; > 1000 µM
CC(C)CN(CC(=O)N(Cc1ccccc1)NC(=O)OCc1ccccc1)/N=C/c1cccc(B(O)O)c1; > 1000 µM
CC(C)CN(NC(=O)OCc1ccccc1)C(=O)CN(Cc1ccccc1)/N=C/c1cccc(B(O)O)c1; 53 µM
CC(C)CN(CC(=O)N(CC(C)C)NCC(=O)OCc1ccccc1)NC(=O)CBr; > 1000 µM
CC(C)CN(NC(=O)OCc1ccccc1)C(=O)CN(Cc1ccccc1)NCc1cccc(Br)c1; > 1000 µM
CC(C)CN(CC(=O)N(CC(C)C)NC(=O)OCc1ccccc1)/N=C/c1ccccc1B(O)O; 50 µM
CC(C)CN(CC(=O)N(CC(C)C)NC(=O)OCc1ccccc1)NC(=O)CNNC(=O)CBr; > 1000 µM
CC(C)CN(NC(=O)OCc1ccccc1)C(=O)CN(Cc1ccccc1)/N=C/c1ccc(B(O)O)cc1; > 1000 µM
CC(C)CN(CC(=O)N(Cc1ccccc1)NC(=O)OCc1ccccc1)/N=C/c1ccccc1B(O)O; > 1000 µM

I'm hoping you can list IC50 for every molecule here, please.
1. CC(C)CN(CC(=O)N(CC(C)C)NC(=O)OCc1ccccc1)NC(=O)CBr
2. CC(C)CN(CC(=O)N(Cc1cccnc1)NC(=O)OCc1ccccc1)/N=C/c1cccc(B(O)O)c1
3. CC(C)CN(CC(=O)N(CC(C)C)NC(=O)OCc1ccccc1)/N=C/c1cccc(B(O)O)c1
4. CC(C)CN(NC(=O)OCc1ccccc1)C(=O)CN(Cc1ccccc1)/N=C/c1ccccc1B(O)O
5. CC(C)CN(NC(=O)OCc1ccccc1)C(=O)CN(Cc1ccccc1)NC(=O)CBr

> 1000 µM
350 µM
91 µM
> 1000 µM
> 1000 µM

I'm hoping you can list IC50 for every molecule here, please.
1. CC(C)CN(NC(=O)CN(Cc1ccccc1)NC(=O)CBr)C(=O)OCc1ccccc1
2. CC(C)CN(CC(=O)NN(Cc1ccccc1)c1cnccn1)NC(=O)CBr

> 1000 µM
> 1000 µM

I would be grateful if you could share the reported IC50 for CC(C)CN(CC(=O)NN(Cc1ccccc1)c1cnccn1)/N=C/c1cccc(B(O)O)c1 .
> 1000 µM
